Target: Histone deacetylase
Experiment: Inhibition of HDAC in human A2780 cells
Type: cell-based
Listed below: IC50 values for each entry.
Give just the number in µM; leave the unit off.

Would you please look over these solved cases?
Prompt: Please report the recorded IC50 for O=C(CCCCCONC(=O)c1cc(Br)cc(Br)c1)NO .
Response: 1.65

Prompt: Please report the recorded IC50 for COc1cc(OC)cc(C(=O)NOCCCCCC(=O)NO)c1 .
Response: 0.83

Prompt: Please report the recorded IC50 for CC(C)(C)c1cc(C(=O)NOCCCCCC(=O)NO)cc(C(C)(C)C)c1 .
Response: 0.93

Prompt: Please report the recorded IC50 for Cc1cc(C)cc(C(=O)NOCCCCCC(=O)NO)c1 .
Response: 0.17

Continuing:
Prompt: Please report the recorded IC50 for O=C(CCCCCONC(=O)c1cc(F)cc(F)c1)NO .
Response: 3.79

Prompt: Please report the recorded IC50 for O=C(CCCCCONC(=O)c1cc(C(F)(F)F)cc(C(F)(F)F)c1)NO .
Response: 11

Prompt: Please report the recorded IC50 for O=C(CCCCCONC(=O)c1c(Cl)cncc1Cl)NO .
Response: 14.5

Prompt: Please report the recorded IC50 for Cc1cc(C)cc(C(=O)NOCCCCC(=O)NO)c1 .
Response: 4.24

Prompt: Please report the recorded IC50 for COc1cc(C(=O)NOCCCCCC(=O)NO)cc(OC)c1OC .
Response: 1.18

Prompt: Please report the recorded IC50 for O=C(CCCCCONC(=O)c1cc(I)cc(I)c1I)NO .
Response: 7.2

====

Target: Histone deacetylase 8 (Homo sapiens, UniProt Q9BY41)
Sequence (Q9BY41 whole entry): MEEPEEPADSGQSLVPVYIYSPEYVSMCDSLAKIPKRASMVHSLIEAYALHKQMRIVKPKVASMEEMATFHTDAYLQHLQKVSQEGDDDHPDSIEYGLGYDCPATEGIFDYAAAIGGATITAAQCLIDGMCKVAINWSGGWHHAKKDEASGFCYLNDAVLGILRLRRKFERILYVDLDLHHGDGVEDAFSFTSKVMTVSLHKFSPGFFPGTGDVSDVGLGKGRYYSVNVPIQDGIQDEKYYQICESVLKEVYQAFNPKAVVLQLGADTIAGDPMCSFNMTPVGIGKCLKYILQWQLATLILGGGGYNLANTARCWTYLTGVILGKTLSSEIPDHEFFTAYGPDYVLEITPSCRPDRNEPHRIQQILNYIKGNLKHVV
Test: Inhibition of recombinant human HDAC8
Recorded endpoint: Ki (µM)
Give just the number in µM; leave the unit off.

Prompt: Please report the recorded Ki for O=C(CCCCCONC(=O)c1cc(Br)cc(Br)c1)NO .
Response: 4.44

Prompt: Please report the recorded Ki for COc1cc(C(=O)NOCCCCCC(=O)NO)cc(OC)c1OC .
Response: 6.4

Prompt: Please report the recorded Ki for O=C(CCCCCONC(=O)c1cc(C(F)(F)F)cc(C(F)(F)F)c1)NO .
Response: 4.9

Continuing:
Prompt: Please report the recorded Ki for Cc1cc(C)cc(C(=O)NOCCCCCC(=O)NO)c1 .
Response: 4.81

====

System: A2780
Assay: Cytotoxicity against human A2780 cells assessed as reduction in cell viability by MTT assay
Format: functional, cell-based
pIC50: −log10 of the molar value.
Label true when pIC50 >= 5; otherwise false.

Solved entries:
Prompt: Test whether the molecule CC(C)(C)c1cc(C(=O)NOCCCCCC(=O)NO)cc(C(C)(C)C)c1 records pIC50 of 5 or higher.
Response: true

Prompt: Test whether the molecule O=C(CCCCCONC(=O)c1cc(I)cc(I)c1I)NO records pIC50 of 5 or higher.
Response: false

Prompt: Test whether the molecule O=C(CCCCCONC(=O)c1cc(C(F)(F)F)cc(C(F)(F)F)c1)NO records pIC50 of 5 or higher.
Response: false

Prompt: Test whether the molecule O=C(CCCCCONC(=O)c1c(Cl)cncc1Cl)NO records pIC50 of 5 or higher.
Response: false

Continuing:
Prompt: Test whether the molecule COc1cc(OC)cc(C(=O)NOCCCCCC(=O)NO)c1 records pIC50 of 5 or higher.
Response: true

Prompt: Test whether the molecule Cc1cc(C)cc(C(=O)NOCCCCCC(=O)NO)c1 records pIC50 of 5 or higher.
Response: true
